Tested on: E. coli TESEC Mtb Asd
testProtocol: growth (OD600 after 10 h); higher = more growth (less inhibition)
runConditions: arabinose induction (level): Low; compound 0.1 mM; raw OD600 reference: median of DMSO wells 0.417, cell-free background 0.041
Structures can show the parent of a compound that is named as a salt.
Param threshold (0.3) applies to growth; output 1 (yes) when value >= threshold, 0 (no) when value < threshold.

1) Cc1cc(-c2ccccc2)nnc1NCCN1CCOCC1 [Minaprine dihydrochloride]; 1 (yes)
2) CO[C@@H]1[C@@H](O[C@@H]2O[C@H](C)[C@@H](O[C@H]3C[C@@](C)(O)[C@@H](OC(=O)CC(C)C)[C@H](C)O3)[C@H](N(C)C)[C@H]2O)[C@@H](CC=O)C[C@@H](C)[C@@H](O)/C=C/C=C/C[C@@H](C)OC(=O)C[C@H]1OC(C)=O; 0 (no)
3) COc1c2occc2c(OC)c2c(=O)cc(C)oc12; 1 (yes)
4) CC(C)c1nc(CN(C)C(=O)N[C@H](C(=O)N[C@@H](Cc2ccccc2)C[C@H](O)[C@H](Cc2ccccc2)NC(=O)OCc2cncs2)C(C)C)cs1; 0 (no)
5) Nc1nc(NC2CC2)c2ncn([C@H]3C=C[C@@H](CO)C3)c2n1 [Abacavir Sulfate]; 1 (yes)
6) CC[C@H](C)C(=O)O[C@H]1CCC=C2C=C[C@H](C)[C@H](CC[C@@H]3C[C@@H](O)CC(=O)O3)[C@H]21; 0 (no)

Input line: Please tell me: is the molecule CC(=O)Nc1ccc(O)cc1 at or over 0.3 in terms of growth?
Output line: 1 (yes)

Input line: Please answer likewise for C=C1c2c(Cl)ccc(O)c2C(O)=C2C(=O)[C@]3(O)C(O)=C(C(N)=O)C(=O)[C@@H](N(C)C)[C@@H]3[C@@H](O)[C@H]12.O=C(O)c1cc(S(=O)(=O)O)ccc1O [Meclocycline sulfosalicylate]
Output line: 0 (no)

Input line: Please answer likewise for CCCCOc1cc(C(=O)OCCN(CC)CC)ccc1N [Benoxinate hydrochloride]
Output line: 1 (yes)

Input line: Please answer likewise for NC(=O)NC1NC(=O)NC1=O (stereo not given)
Output line: 1 (yes)

Input line: Please answer likewise for C[C@](N)(Cc1ccc(O)c(O)c1)C(=O)O
Output line: 1 (yes)

Input line: Please answer likewise for Cc1cn([C@H]2C[C@H](N=[N+]=[N-])[C@@H](CO)O2)c(=O)[nH]c1=O
Output line: 0 (no)
